Target: Cytochrome P450 3A4 (Homo sapiens)
Sequence (P08684 whole entry): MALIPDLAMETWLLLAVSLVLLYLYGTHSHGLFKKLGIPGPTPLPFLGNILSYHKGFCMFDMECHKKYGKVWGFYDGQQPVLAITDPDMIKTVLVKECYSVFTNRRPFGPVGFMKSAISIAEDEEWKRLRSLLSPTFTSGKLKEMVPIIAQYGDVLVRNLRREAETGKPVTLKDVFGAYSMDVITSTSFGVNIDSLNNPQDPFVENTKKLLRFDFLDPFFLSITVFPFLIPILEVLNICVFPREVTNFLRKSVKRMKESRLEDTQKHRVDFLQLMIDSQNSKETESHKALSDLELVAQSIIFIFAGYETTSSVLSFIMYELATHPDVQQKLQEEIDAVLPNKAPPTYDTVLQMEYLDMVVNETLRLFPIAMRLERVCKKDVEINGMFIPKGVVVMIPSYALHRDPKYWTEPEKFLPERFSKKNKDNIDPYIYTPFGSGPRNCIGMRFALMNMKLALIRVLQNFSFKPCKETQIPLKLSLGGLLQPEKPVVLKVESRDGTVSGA
Assay: Inhibition of human CYP3A4 in human liver microsomes assessed as formation of 6beta-hydroxy-testosterone using testosterone as substrate by high throughput mass spectrometry preincubated for 30 mins in presence of NADPH
Format: ADME, Microsome
pIC50: −log10 of the molar value.
property: pIC50

COCCCc1cc(CN(C(=O)[C@H]2CNCC[C@@H]2c2ccc(OCCOc3c(Cl)cc(C)cc3Cl)cc2)C2CC2)cc(OCC2(Cc3nn[nH]n3)CC2)c1	< 4.30
CCC(CC)(CCOc1cc(CCCOC)cc(CN(C(=O)[C@H]2CNCC[C@@H]2c2ccc(OCCOc3c(Cl)cc(C)cc3Cl)cc2)C2CC2)c1)C(=O)O	< 4.30

Please turn your attention to the following entry.
Give recorded pIC50. "COCCCc1cc(CN(C(=O)[C@H]2CNCC[C@@H]2c2ccc(OCCOc3c(Cl)cc(C)cc3Cl)cc2)C2CC2)cc(OCC(C)(C)C(=O)O)c1" < 4.30

====

Give pKi for every item shown.
Target: Voltage-gated inwardly rectifying potassium channel KCNH2 (Homo sapiens, UniProt Q12809)
Sequence (Q12809 whole entry): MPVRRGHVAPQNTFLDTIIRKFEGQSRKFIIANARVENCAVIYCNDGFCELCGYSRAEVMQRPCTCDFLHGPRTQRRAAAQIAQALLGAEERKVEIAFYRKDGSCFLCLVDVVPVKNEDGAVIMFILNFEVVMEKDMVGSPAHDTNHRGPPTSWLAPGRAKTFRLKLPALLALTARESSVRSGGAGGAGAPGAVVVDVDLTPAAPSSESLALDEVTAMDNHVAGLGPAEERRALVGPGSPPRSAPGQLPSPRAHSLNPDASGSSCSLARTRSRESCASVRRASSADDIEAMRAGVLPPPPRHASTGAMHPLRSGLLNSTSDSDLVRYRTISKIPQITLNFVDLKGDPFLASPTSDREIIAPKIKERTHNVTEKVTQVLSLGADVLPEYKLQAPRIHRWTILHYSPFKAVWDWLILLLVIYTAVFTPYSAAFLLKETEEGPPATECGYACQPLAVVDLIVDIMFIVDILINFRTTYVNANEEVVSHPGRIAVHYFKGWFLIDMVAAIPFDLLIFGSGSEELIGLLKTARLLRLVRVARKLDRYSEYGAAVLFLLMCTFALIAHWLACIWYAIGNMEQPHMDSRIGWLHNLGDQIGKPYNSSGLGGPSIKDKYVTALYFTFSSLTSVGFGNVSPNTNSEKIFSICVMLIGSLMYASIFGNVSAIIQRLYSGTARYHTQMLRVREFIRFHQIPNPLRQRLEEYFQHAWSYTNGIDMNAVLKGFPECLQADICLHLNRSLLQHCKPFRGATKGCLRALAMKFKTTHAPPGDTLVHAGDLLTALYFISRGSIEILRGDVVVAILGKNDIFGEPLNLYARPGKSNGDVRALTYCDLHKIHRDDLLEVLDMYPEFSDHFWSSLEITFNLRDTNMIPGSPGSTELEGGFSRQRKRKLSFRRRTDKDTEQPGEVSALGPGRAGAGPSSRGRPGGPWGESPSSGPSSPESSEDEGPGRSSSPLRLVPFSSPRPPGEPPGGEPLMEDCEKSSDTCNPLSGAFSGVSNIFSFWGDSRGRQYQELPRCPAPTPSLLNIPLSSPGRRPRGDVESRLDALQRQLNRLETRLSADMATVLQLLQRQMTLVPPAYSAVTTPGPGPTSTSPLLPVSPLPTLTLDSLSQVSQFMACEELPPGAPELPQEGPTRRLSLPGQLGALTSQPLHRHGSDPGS
Numbers only, as −log10 of the molar value.

COCCCc1cc(CN(C(=O)[C@H]2CNCC[C@@H]2c2ccc(OCCOc3c(Cl)cc(C)cc3Cl)cc2)C2CC2)cc(OC[C@H]2C[C@@H]2C(=O)OCOC(=O)C(C)(C)C)c1	7.40
COCCCc1cc(CN(C(=O)[C@H]2CNCC[C@@H]2c2ccc(OCCOc3c(Cl)cc(C)cc3Cl)cc2)C2CC2)cc(OCCC(C)(C)C(=O)O)c1	6.40
COCCCc1cc(CN(C(=O)[C@H]2CNCC[C@@H]2c2ccc(OCCOc3c(Cl)cc(C)cc3Cl)cc2)C2CC2)cc(OCCCNS(C)(=O)=O)c1	7.10
COCCCc1cc(CN(C(=O)[C@H]2CNCC[C@@H]2c2ccc(OCCOc3c(Cl)cc(C)cc3Cl)cc2)C2CC2)cc(OCCN(C)C)c1	6.74
COCCCc1cc(CN(C(=O)[C@H]2CNCC[C@@H]2c2ccc(OCCOc3c(Cl)cc(C)cc3Cl)cc2)C2CC2)cc(OC[C@H]2C[C@@H]2C(=O)OCC(=O)N(C)C)c1	6.70
COCCCc1cc(CN(C(=O)[C@H]2CNCC[C@@H]2c2ccc(OCCOc3c(Cl)cc(C)cc3Cl)cc2)C2CC2)cc(OCC2(Cc3nn[nH]n3)CC2)c1	6.30
COCCCc1cc(CN(C(=O)[C@H]2CNCC[C@@H]2c2ccc(OCCOc3c(Cl)cc(C)cc3Cl)cc2)C2CC2)cc(OCC(C)(C)O)c1	6.89
CCOC(=O)[C@H]1C[C@@H]1COc1cc(CCCOC)cc(CN(C(=O)[C@H]2CNCC[C@@H]2c2ccc(OCCOc3c(Cl)cc(C)cc3Cl)cc2)C2CC2)c1	7.10

Quick request: pKi for each listed item, please.
1. COCCCc1cc(CN(C(=O)[C@H]2CNCC[C@@H]2c2ccc(OCCOc3c(Cl)cc(C)cc3Cl)cc2)C2CC2)cc(OCCC2(C(=O)O)CCCC2)c1
2. COCCCc1cc(CN(C(=O)[C@H]2CNCC[C@@H]2c2ccc(OCCOc3c(Cl)cc(C)cc3Cl)cc2)C2CC2)cc(OCC2(CC(=O)O)CC2)c1

[6.30, 6.00]
